Test system: HOP-92 NSCLC
Assay: NCI tumour cell line growth inhibition, 48 h
Measure name: TGI

Enquiry: Query for HOP-92 NSCLC: what TGI does the record show for "Cc1ccc(/C=C/C(=O)c2ccc(F)cc2)s1" ?
Return: 3.4 µM

Enquiry: Next compound up: COc1cccc(C2CC(C)(O)Oc3cc4c(cc32)OCO4)c1 (configuration not stated)
Return: 93.3 µM

Enquiry: Next compound up: "COc1ccc(-c2nc(-c3nc4cc(Cl)c(Cl)cc4[nH]3)c3ccccn23)cc1"
Return: 5.1 µM

Enquiry: Next compound up: O=C(O)C1CCCN1 (configuration not stated)
Return: > 100 µM

Enquiry: Next compound up: CC1=NC2(C(=O)O)C3(C(=O)O)N=C(C)OC3(C(F)(F)F)C2(C(F)(F)F)O1 (configuration not stated)
Return: > 100 µM

Next:
Enquiry: Query for HOP-92 NSCLC: what TGI does the record show for O=C1/C(=C/c2cc(O)c(O)c(O)c2)Oc2cc(O)cc(OC3OC(CO)C(O)C(O)C3O)c21 (configuration not stated) ?
Return: 38.7 µM

Enquiry: Next compound up: "C#CCOC(=O)C=[N+]=[N-]"
Return: > 10 µM

Enquiry: Next compound up: "CN1CCN(c2n[nH]c(=O)c3c2nnn3Cc2ccccc2)CC1"
Return: > 100 µM

Enquiry: Next compound up: "CC1=NN(c2ccccc2)C(=O)/C1=C1\SC(c2ccccc2)(c2ccccc2)c2ccccc21"
Return: > 100 µM

Enquiry: Next compound up: "Cc1cccc(-c2nc(=S)[nH][nH]2)c1"
Return: > 100 µM

Enquiry: Next compound up: "N#CSc1c[nH]c2ccc(/C=C/C(=O)/C=C(O)/C=C/c3ccc4[nH]cc(SC#N)c4c3)cc12"
Return: 4.46 µM

----------
System: UACC-62 melanoma
Test: NCI tumour cell line growth inhibition, 48 h
Measure name: GI50

Enquiry: Entry "Oc1ccc(CCNc2nc3ccccc3c3[nH]c4ccccc4c23)cc1O" : reported GI50 = ?
Return: 3.86 µM

Enquiry: Next compound up: "CN1CCN(CCCOC(=O)c2c3c(n4ccccc24)C(=O)c2ncccc2C3=O)CC1"
Return: < 0.01 µM

Enquiry: Next compound up: "CN1CCN(c2cc(F)c(NC3=C(Cl)C(=O)c4ncccc4C3=O)c(F)c2)CC1"
Return: 1.67 µM

Enquiry: Next compound up: "COc1cc2c(cc1OCCCCCOc1ccc(-c3nc4ccccc4s3)cc1)N=C[C@@H]1CCCN1C2=O"
Return: 3.27 µM

Next item in the queue.
Enquiry: Entry "CCN(Cc1ccccc1)c1ccc(/C=C2\COc3ccccc3C2=O)cc1" : reported GI50 = ?
Return: 304 µM

----------
System: UACC-257 melanoma
Assay: NCI tumour cell line growth inhibition, 48 h
Measure name: GI50

Enquiry: Entry CCN(CC)CCN1C(=O)C2C3C(C)=CC(OC(C)=O)(CC3C)C2C1=O (stereo not given) : reported GI50 = ?
Return: > 100000 nM

Enquiry: Next compound up: "Clc1cccc(-c2cc(-c3ccc4c(c3)OCCO4)[nH]n2)c1"
Return: 25400 nM

Enquiry: Next compound up: "CN1CCN(CCCOC(=O)c2c3c(n4ccccc24)C(=O)c2ncccc2C3=O)CC1"
Return: 21.9 nM

Enquiry: Next compound up: "CCCCCCCCCCCC1=NC(C)(C)CN1C(C)C"
Return: 2490 nM

Enquiry: Next compound up: "CC(=O)Nc1ccc(CC[C@H]2CCC/C=C/[C@@H]3C[C@H](O)C[C@H]3[C@H](O)/C=C/C(=O)O2)cc1"
Return: 59.6 nM
